Molecular target: T1, human epidermal growth factor receptor 2 (HER2) (human, UniProt P04626 23-1255)
T1 construct: whole, on cells; One entry for endogenous HER2 on tumor cell lines and for the fully human construct hu-HER2 on CHO-S cells; also called ErbB-2; hu-HER2
Experiment: flow cytometry on A431 cells (low HER2), PE-goat anti-human IgG, MFI; EC50 by non-linear regression (Example 12)
observed property: EC50 (µg/mL)
Kindly provide the numeric value in µg/mL only, without the unit symbol.

| binder | EC50, µg/mL |
| --- | --- |
| HER2 HuMab 153 (antibody, V domains shown, also called PC1014-153; TH1014-153) VH: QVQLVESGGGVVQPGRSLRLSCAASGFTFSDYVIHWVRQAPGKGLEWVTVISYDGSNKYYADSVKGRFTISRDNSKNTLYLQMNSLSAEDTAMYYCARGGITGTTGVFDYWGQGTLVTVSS VL: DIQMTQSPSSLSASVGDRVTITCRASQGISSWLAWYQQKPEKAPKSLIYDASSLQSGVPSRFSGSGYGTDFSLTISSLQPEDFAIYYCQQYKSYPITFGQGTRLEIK | 0.244 |

-- ask What does the record list as EC50 for HER2 HuMab 129 (antibody, V domains shown, also called PC1014-129) VH: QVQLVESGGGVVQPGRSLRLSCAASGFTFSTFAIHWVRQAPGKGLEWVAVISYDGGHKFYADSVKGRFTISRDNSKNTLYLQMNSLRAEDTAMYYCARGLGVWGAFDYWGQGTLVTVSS VL: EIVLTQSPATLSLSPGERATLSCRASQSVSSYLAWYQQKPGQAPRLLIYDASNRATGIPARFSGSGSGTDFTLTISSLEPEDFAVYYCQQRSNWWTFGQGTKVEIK ?
-- reply 0.316

-- ask What does the record list as EC50 for HER2 HuMab 132 (antibody, V domains shown, also called PC1014-132) VH: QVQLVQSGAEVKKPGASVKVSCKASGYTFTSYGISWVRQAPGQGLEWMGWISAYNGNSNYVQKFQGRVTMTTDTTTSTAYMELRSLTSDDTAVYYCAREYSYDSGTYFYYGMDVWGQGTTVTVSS VL: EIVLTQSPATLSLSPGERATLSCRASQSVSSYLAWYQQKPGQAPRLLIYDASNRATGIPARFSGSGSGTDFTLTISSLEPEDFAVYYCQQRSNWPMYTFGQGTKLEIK ?
-- reply 0.068

-- ask What does the record list as EC50 for HER2 HuMab 169 (antibody, V domains shown) VH: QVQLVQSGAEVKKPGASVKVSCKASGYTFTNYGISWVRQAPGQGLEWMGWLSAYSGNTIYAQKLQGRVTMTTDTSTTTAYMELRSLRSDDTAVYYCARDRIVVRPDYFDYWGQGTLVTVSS VL: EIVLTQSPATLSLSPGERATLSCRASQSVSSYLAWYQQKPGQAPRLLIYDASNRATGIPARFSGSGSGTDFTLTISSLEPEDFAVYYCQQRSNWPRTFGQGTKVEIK ?
-- reply 0.415
